# Tested on: pigweed (Amaranthus retroflexus)
# procedure summary: Test A preemergence
# Type: in vivo
# experimental parameters: Amaranthus retroflexus, pre-emergence, 240 h, 125 g ai/ha, preemergence; 0 to 100 scale where 0 is no effect and 100 is complete control; approx. 10 d; read-out: Pigweed plant response rating
# Description: […]

[
  {
    "compound": "CN1C[C@H](c2cscn2)[C@@H](C(=O)Nc2ccccc2F)C1=O [Compound 1112]",
    "tested target": "pigweed (Amaranthus retroflexus)",
    "pest or weed control at 125 g/ha": "0%"
  },
  {
    "compound": "CN1C[C@H](c2cc(F)cc(F)c2)[C@@H](C(=O)Nc2cnccc2Cl)C1=O [Compound 1096]",
    "tested target": "pigweed (Amaranthus retroflexus)",
    "pest or weed control at 125 g/ha": "0%"
  },
  {
    "compound": "Cc1ccc([C@H]2CN(C)C(=O)[C@@H]2C(=O)Nc2cnccc2C(F)(F)F)cc1 [Compound 1067]",
    "tested target": "pigweed (Amaranthus retroflexus)",
    "pest or weed control at 125 g/ha": "0%"
  },
  {
    "compound": "CN1C[C@H](c2ccc(C(F)(F)F)nc2)[C@@](C)(C(=O)Nc2cccc(F)c2F)C1=O [Compound 1109]",
    "tested target": "pigweed (Amaranthus retroflexus)",
    "pest or weed control at 125 g/ha": "90%"
  },
  {
    "compound": "CN1C[C@H](c2csc3c2CCC3)[C@@H](C(=O)Nc2ccc(F)c(F)c2F)C1=O [Compound 1081]",
    "tested target": "pigweed (Amaranthus retroflexus)",
    "pest or weed control at 125 g/ha": "0%"
  },
  {
    "compound": "O=C1NC[C@H](c2ccc3c(c2)OCO3)[C@H]1C(=O)Nc1cccc(F)c1C(F)(F)F [Compound 1127]",
    "tested target": "pigweed (Amaranthus retroflexus)",
    "pest or weed control at 125 g/ha": "0%"
  },
  {
    "compound": "CN1C[C@H](c2cc(F)cc(F)c2)[C@@H](C(=O)Nc2ccncc2F)C1=O [Compound 1095]",
    "tested target": "pigweed (Amaranthus retroflexus)",
    "pest or weed control at 125 g/ha": "0%"
  },
  {
    "compound": "Cc1ccc([C@H]2CN(C)C(=O)[C@@H]2C(=O)Nc2cnccc2C)cc1 [Compound 1070]",
    "tested target": "pigweed (Amaranthus retroflexus)",
    "pest or weed control at 125 g/ha": "0%"
  },
  {
    "compound": "CON1CC[C@H](c2ccc(C(F)(F)F)cc2)[C@@H](C(=O)Nc2ccc(F)c(F)c2F)C1=O [Compound 1107]",
    "tested target": "pigweed (Amaranthus retroflexus)",
    "pest or weed control at 125 g/ha": "0%"
  },
  {
    "compound": "CN1C[C@H](c2ccc(C(F)(F)F)cc2)[C@@H](C(=O)Nc2cnccc2C(F)(F)F)C1=O [Compound 1065]",
    "tested target": "pigweed (Amaranthus retroflexus)",
    "pest or weed control at 125 g/ha": "70%"
  },
  {
    "compound": "CON1CC[C@H](c2cccc(C(F)(F)F)c2)[C@@H](C(=O)Nc2ccccc2C(F)(F)F)C1=O [Compound 1172]",
    "tested target": "pigweed (Amaranthus retroflexus)",
    "pest or weed control at 125 g/ha": "0%"
  }
]
